Provide the recorded activity (% excision efficiency relative to FRT1) for the entries that follow.
target-or-system: FLP recombinase (native yeast) (Saccharomyces cerevisiae) (UniProt P03870)
Sequence: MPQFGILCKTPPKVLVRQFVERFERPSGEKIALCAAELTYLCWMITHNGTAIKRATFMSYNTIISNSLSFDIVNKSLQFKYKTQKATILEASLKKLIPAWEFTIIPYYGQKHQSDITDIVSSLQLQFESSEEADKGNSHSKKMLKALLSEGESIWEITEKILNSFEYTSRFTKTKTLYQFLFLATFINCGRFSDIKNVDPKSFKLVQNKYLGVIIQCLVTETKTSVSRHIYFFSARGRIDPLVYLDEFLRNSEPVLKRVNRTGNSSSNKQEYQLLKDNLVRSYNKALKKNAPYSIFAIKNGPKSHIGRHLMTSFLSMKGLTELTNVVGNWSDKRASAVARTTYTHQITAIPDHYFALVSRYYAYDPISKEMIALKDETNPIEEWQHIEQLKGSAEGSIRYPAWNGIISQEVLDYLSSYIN
test-method-notes: cleavage_in_vitro
condition-summary: 30 C, 10 mM MgCl2
Answers are plain numbers.

sequence-text: AGTTCCTATACTCTATGTAGAATAGGAACT (double strand) [FRT12]
experimental-value: 102

Below are 7 sequences. Give each one its activity (% excision efficiency relative to FRT1).
1. AGTTCCTATACTTTCTGGAGAATAGGAACT (double strand) [FRT87]
2. AGTTCCTATACTGTAAAAAGAATAGGAACT (double strand) [FRT53]
3. AGTTCCTATACTTCCGAGAGAATAGGAACT (double strand) [FRT43]
4. AGTTCCTATACTTTCTTGAGAATAGGAACT (double strand) [FRT85]
5. AGTTCCTATACTGATTGGAGAATAGGAACT (double strand) [FRT65]
6. AGTTCCTATACTATACAAAGAATAGGAACT (double strand) [FRT70]
7. AGTTCCTATACTCTTTTGAGAATAGGAACT (double strand) [FRT5]

# output
1: 93; 2: 64; 3: 14; 4: 116; 5: 18; 6: 25; 7: 15

###

Provide the recorded activity (% excision efficiency relative to FRT1) for the entries that follow.
target-or-system: FLP recombinase (native yeast) (Saccharomyces cerevisiae) (UniProt P03870)
Sequence: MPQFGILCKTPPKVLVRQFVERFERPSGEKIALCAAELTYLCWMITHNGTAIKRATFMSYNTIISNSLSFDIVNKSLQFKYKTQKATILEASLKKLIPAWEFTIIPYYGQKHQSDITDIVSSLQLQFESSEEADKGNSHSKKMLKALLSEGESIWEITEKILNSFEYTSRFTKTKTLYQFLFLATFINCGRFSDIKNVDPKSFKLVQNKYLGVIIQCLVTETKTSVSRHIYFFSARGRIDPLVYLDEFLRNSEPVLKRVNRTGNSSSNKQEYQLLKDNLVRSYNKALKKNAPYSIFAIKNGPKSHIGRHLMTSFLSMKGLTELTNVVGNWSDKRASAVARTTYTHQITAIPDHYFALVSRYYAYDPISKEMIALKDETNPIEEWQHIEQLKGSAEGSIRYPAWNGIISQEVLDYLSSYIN
test-method-notes: cleavage_in_vitro
condition-summary: 30 C, 10 mM MgCl2

sequence-text: AGTTCCTATACTGAAAAGAGAATAGGAACT (double strand) [FRT78]
experimental-value: 60

Below are 6 sequences. Give each one its activity (% excision efficiency relative to FRT1).
1. AGTTCCTATACTTTTCTAAGAATAGGAACT (double strand) [FRT57]
2. AGTTCCTATACTTCCATAAGAATAGGAACT (double strand) [FRT76]
3. AGTTCCTATACTCCACAGAGAATAGGAACT (double strand) [FRT55]
4. AGTTCCTATACTCTCTAGAGAATAGGAACT (double strand) [FRT89]
5. AGTTCCTATACTGTAATGAGAATAGGAACT (double strand) [FRT34]
6. AGTTCCTATACTGAGAGAAGAATAGGAACT (double strand) [FRT74]

# output
82
30
7
39
34
5

Below are 4 sequences. Give each one its activity (% excision efficiency relative to FRT1).
1. AGTTCCTATACTTTAGGTAGAATAGGAACT (double strand) [FRT62]
2. AGTTCCTATACTTTCTCGAGAATAGGAACT (double strand) [FRT86]
3. AGTTCCTATACTTTTGTGAGAATAGGAACT (double strand) [FRT69]
4. AGTTCCTATACTCTCTTGAGAATAGGAACT (double strand) [FRT45]

# output
72
12
9
5
